Test system: PXR homodimer (NR concentration 270 nM)
PROTOCOL_SUMMARY: PBM binding z-score (relative to random genomic background probes); higher = stronger binding; sequences stand for … in GC…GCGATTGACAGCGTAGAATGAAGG
Each entry below carries its reported PBM binding z-score.
Simply state the number, no unit and no words.

Recorded PBM binding z-score, per entry:
Reported PBM binding z-score (PXR homodimer (NR concentration 270 nM)) for entry `AAAGACAGGTGAGTGAAGGTAACTCAGCTGGACG` is 0.232

Per the reported PXR homodimer (NR concentration 270 nM) data, `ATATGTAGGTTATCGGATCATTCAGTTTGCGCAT` has PBM binding z-score of 0.884

For the sequence `AGTCAAAGTTCATATAGGTAACGTAAGATATGCT` , the measured PBM binding z-score on PXR homodimer (NR concentration 270 nM) was 5

Bench note, PXR homodimer (NR concentration 270 nM): entry `GCTAGTTGGTCAGTAAAAGGTCACACTCCGGTCG` , its PBM binding z-score = 0.877

***
Tested system PXR homodimer (NR concentration 270 nM); PBM binding z-score recorded for `TCTGCTAGGTCAGTTGGTCAGCTCACGAGCTGCC` was -1.06

The recorded PBM binding z-score with PXR homodimer (NR concentration 270 nM) for `CCGACTGGGGCATAAGATTACCATAAGCCAGCCC` was -0.41

Observed PBM binding z-score, PXR homodimer (NR concentration 270 nM), `ATCTCTAGGTATCCAAGTTCAGTGAATGCCGAAC` : 1.56

Per the reported PXR homodimer (NR concentration 270 nM) data, `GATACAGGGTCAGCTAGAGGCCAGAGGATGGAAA` has PBM binding z-score of -0.127

Sample `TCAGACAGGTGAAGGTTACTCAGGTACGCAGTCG` , system: PXR homodimer (NR concentration 270 nM). Its PBM binding z-score is 0.43

###

Test system: PPARg DBDmut:RXRa IVT, anti-PPARg (DBD mutation: PPARg1 K132A/R137A, NR concentration 270 nM, RXRa partner concentration 90 nM)
PROTOCOL_SUMMARY: PBM binding z-score (relative to random genomic background probes); higher = stronger binding; sequences stand for … in GC…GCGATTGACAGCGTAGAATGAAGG
Collected PBM binding z-score values appear next to each entry.
Write the number on its own, no unit after it.

For orientation, consider the following solved cases.
Noted for `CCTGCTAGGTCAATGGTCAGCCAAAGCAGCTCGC` : its PBM binding z-score reads -0.884

// `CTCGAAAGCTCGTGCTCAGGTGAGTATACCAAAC` : PBM binding z-score value = -1.04

Entry `CAGCCTAGGTCAGGGCAAGTATAGGAGGAACGTT` , PBM binding z-score reported as -0.618

response.value for `ACAGACAGGTGAGTGCAGGTAACTCAGCTGGACG` (field: PBM binding z-score) = 0.0571

PBM binding z-score in this record for `CAAACTGGGTCACAGAGGTCAAAGTCCGTGCGTA` : 4.79

Entry `CGTCCAAGGTCATAGGAGGTCAGTCAAGACAGAT` , PBM binding z-score reported as 0.231

# sequence `TCTGCTAGCTCAACGATGGTCAGCTAATCTGCTA` ; its PBM binding z-score = -0.717

Memo: `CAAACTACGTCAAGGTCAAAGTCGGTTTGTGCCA` , reported PBM binding z-score: 0.681

Next:
Lab note: `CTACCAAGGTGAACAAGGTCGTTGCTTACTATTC` gave PBM binding z-score of 0.0347

Reported PBM binding z-score of `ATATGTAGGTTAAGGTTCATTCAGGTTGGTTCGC` : 4.12

In plain terms, `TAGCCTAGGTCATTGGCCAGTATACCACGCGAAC` has a documented PBM binding z-score of 0.244

PBM binding z-score measured on `CCTCGGAGGACAGAAGGTCATAGCTGTCCGCTTT` = -1.55

###

System: THRa homodimer (NR concentration 90 nM)
PROTOCOL_SUMMARY: PBM binding z-score (relative to random genomic background probes); higher = stronger binding; sequences stand for … in GC…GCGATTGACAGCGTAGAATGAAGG
Class true (1): PBM binding z-score at least 0.2. Class false (0): PBM binding z-score below 0.2.

Exam item: Please tell me: is the sequence `TGTCAAAGTTCAAAGGTAACTTAAGTATCCACAC` at or over 0.2 in terms of PBM binding z-score?
Marked response: false (0)

Exam item: Does the reported PBM binding z-score for `CCTACTGGGCCATCAGGTCACTGATATCAACGTT` fall at or above the 0.2 mark?
Marked response: true (1)

Exam item: Say whether `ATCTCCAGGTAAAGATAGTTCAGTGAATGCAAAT` shows PBM binding z-score of 0.2 or more.
Marked response: true (1)

Exam item: Check this sequence for PBM binding z-score at or above 0.2: `CCTATTAGTTGACGATAAGGGCAACCGAAGCTCG`
Marked response: true (1)

Exam item: hey, is PBM binding z-score for this one >= 0.2? `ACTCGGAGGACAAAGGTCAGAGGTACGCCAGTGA`
Marked response: true (1)

Others:
Exam item: Confirm if PBM binding z-score reported for the sequence `TCTATTAGTTGATTAGGGCAACCGTAACAGCGGA` is 0.2 or above.
Marked response: true (1)

Exam item: Reported PBM binding z-score at or above 0.2? `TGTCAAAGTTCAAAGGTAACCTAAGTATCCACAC`
Marked response: true (1)

Exam item: Test whether the sequence `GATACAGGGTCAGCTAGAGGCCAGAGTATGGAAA` records PBM binding z-score of 0.2 or higher.
Marked response: true (1)

Exam item: Could you tell me if the measured PBM binding z-score of `CGTAAAAGTTCAAGGTAACGTAACAGAAAGCAGC` reaches 0.2 or more?
Marked response: true (1)

Exam item: Answer whether PBM binding z-score of `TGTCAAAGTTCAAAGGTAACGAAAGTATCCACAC` is greater than or equal to 0.2.
Marked response: false (0)

Exam item: Item `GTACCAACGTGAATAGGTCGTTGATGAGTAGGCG` with PBM binding z-score of 0.2 or above?
Marked response: false (0)

Exam item: Textbook exercise: given the entry `CATACAGAGTCAGCTAGGCCAGAGTAGGGACGGC` , state whether its PBM binding z-score is greater than or equal to 0.2.
Marked response: false (0)

Exam item: I'd appreciate it if you could say whether `CTCGAAAGGTCGGTTGAGGTGAGTATCCGGATAA` has PBM binding z-score at least equal to 0.2.
Marked response: true (1)

Exam item: Can `CCTACTGGGCCAAAAGGGTCATTGATGCCGATAA` be said to have PBM binding z-score at or above 0.2?
Marked response: false (0)

Exam item: Please check the record `ACTAGTTGGTCTGCTGAGGTCACACACAATTCGG` and state if its PBM binding z-score is at or above 0.2.
Marked response: true (1)

###

Catalogue of PBM binding z-score readings, one per entry.
Test system: RXRa DBDmut IVT, anti-RXR (DBD mutation: RXRa K156A/R161A, NR concentration 90 nM)
PROTOCOL_SUMMARY: PBM binding z-score (relative to random genomic background probes); higher = stronger binding; sequences stand for … in GC…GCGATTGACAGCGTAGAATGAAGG
// no unit string in output, number only

Some sequences with known PBM binding z-score results, for comparison:
# lookup: `ATCTCTAGGTACAAGTTCAGTGAATCCCGAGGAT` on RXRa DBDmut IVT, anti-RXR (DBD mutation: RXRa K156A/R161A, NR concentration 90 nM), PBM binding z-score = 1.93

Reading of PBM binding z-score for `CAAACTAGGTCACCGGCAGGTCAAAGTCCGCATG` with RXRa DBDmut IVT, anti-RXR (DBD mutation: RXRa K156A/R161A, NR concentration 90 nM): 2.05

Query `AATACAGGGTCATCGTAGGCCAAAGTACGCACAG` on RXRa DBDmut IVT, anti-RXR (DBD mutation: RXRa K156A/R161A, NR concentration 90 nM); PBM binding z-score returned: 3.63

// assay RXRa DBDmut IVT, anti-RXR (DBD mutation: RXRa K156A/R161A, NR concentration 90 nM), entry `TCTTGTCGATCAGCAGGTTAAGAAAGCTGGCCAA` , PBM binding z-score value = 0.615

Kindly note: RXRa DBDmut IVT, anti-RXR (DBD mutation: RXRa K156A/R161A, NR concentration 90 nM), `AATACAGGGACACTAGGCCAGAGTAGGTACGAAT` , PBM binding z-score value reported: 0.0578

More entries:
Reported RXRa DBDmut IVT, anti-RXR (DBD mutation: RXRa K156A/R161A, NR concentration 90 nM) PBM binding z-score for item `GGACCGAGGGCAAGTTGATAGCAGAGTTTGATGG` was 2.06

RXRa DBDmut IVT, anti-RXR (DBD mutation: RXRa K156A/R161A, NR concentration 90 nM) PBM binding z-score of `ATCTCTAGGTAAAAGGTCAGTGAATCCCGAGGAT` is 0.227

Kindly note: RXRa DBDmut IVT, anti-RXR (DBD mutation: RXRa K156A/R161A, NR concentration 90 nM), `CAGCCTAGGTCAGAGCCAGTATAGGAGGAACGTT` , PBM binding z-score value reported: 0.588
